Biological target: T1, recombinant human RANKL (human, UniProt O14788 136-317)
T1 sequence: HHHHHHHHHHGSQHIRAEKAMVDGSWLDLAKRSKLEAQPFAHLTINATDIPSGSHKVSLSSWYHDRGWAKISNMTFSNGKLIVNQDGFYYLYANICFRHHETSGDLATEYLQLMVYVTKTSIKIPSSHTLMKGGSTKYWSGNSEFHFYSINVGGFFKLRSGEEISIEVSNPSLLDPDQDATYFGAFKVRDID
Experiment: cell-based or functional assay
Experimental Readout: IC50 (ng/ml) in RAW264.7 cells, osteoclast differentiation induced by RANKL

{"Binder": "G4 (antibody, human IgG2, kappa, V domains shown) VH: QVQLVQSGAELKKPGASVKLSCKASGYTFTTYWLQWVRQAPGQGLEWMGAIYPGPGNTKYTQKFKDRFTITADKSKSTAYMQLNSLKSEDSAVYYCARRGSRRGIAYWGQGTLVTVSA VL: NIVLTQSPASLSVSLGQRATISCRASESVDSYGRSFMHWYQQRPGQAPKLLIYLASNLESGVPARFSGSGSRTDFTLTISSVEAEDEATYYCQQDNEDPYTFGGGTKLEIKG", "Result": "~1080 ng/mL"}

Would you kindly share the measured IC50 (ng/ml) in RAW264.7 cells, osteoclast differentiation induced by RANKL for G14 (antibody, human IgG2, kappa, V domains shown) VH: QVQLVQSGAEVKKPGASVKVSCKASGYTFTTYWLQWVRQAPGQGLEWMGAIYPGPGNTKYTQKFKDRVTITADESTSTAYMELSSLRSEDTAVYYCARRGSRRGIAYWGQGTLVTVSA VL: DIVMTQSPDSLAVSLGERATINCRASESVDSYGRSFMHWYQQKPGQAPRLLIYLASNLESGVPSRFSGSGSGTDFTLTINSLEAEDAATYYCQQDNEDPYTFGGGTKLEIKG ?
~517 ng/mL

Another: G12 (antibody, human IgG2, kappa, V domains shown) VH: QVQLVQSGAELKKPGASVKLSCKASGYTFTTYWLQWVRQAPGQGLEWMGAIYPGPGNTKYTQKFKDRFTITADTSKSTAYMQLNSLKSEDSAVYYCARRGSRRGIAYWGQGTLVTVSA VL: NIVLTQSPASLSVSLGQRATISCRASESVDSYGRSFMHWYQQRPGQAPKLLIYLASNLESGVPARFSGSGSRTDFTLTISSVEAEDEATYYCQQDNEDPYTFGGGTKLEIKG
~1060 ng/mL

Another: G8 (antibody, human IgG2, kappa, V domains shown) VH: QVQLVQSGAELVQPGASVKLSCKASGYTFTTYWLQWVRQTPGQGLEWMGAIYPGPGNTKYTQKFKDRVTITADTSTSTAYMQLNSLRSEDSAVYYCARRGSRRGIAYWGQGTLVTVSA VL: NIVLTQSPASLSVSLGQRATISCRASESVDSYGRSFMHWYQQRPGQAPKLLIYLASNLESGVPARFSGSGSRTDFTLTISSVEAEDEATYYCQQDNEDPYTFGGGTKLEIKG
~573 ng/mL
